study_system: T1, PDZRN3_1, Q9UPQ7
T1 sequence (Q9UPQ7 244-349, limits assumed, looked up): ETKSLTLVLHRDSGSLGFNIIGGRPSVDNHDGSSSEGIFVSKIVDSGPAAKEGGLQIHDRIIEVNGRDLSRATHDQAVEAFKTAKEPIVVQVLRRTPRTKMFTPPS
test_details: holdup assay
Set-up: key: below the threshold = too weak to quantify, mostly under pKd 3.1 to 4
condition_notes: plain residues with an end cap or a label only (N-terminal biotin on a linker: ado-ado)
readout_kind: pKd

Some solved entries appear below for comparison.
FHSIKQSTAV [CRHR1, P34998]    4.17
SSSVNVSSNL [CXCR1, P25024]    below the threshold
PDSYHRRDFW [U2AF2, P26368]    below the threshold
LVEEEEPMNL [HDAC7, Q8WUI4]    below the threshold
DLLGGGSDSI [TNRC6B, Q9UPQ9]    below the threshold

Consider SGDGKTSVWI [GJC1, P36383] . Its measured pKd is below the threshold

Consider KIEDVEITLV [FCHSD2, O94868] . Its measured pKd is below the threshold

Consider SQDPKKPSRV [CBY2, Q8NA61] . Its measured pKd is 3.56
